Target: recombinant human ALK enzyme (ALK WT) (Homo sapiens)
Construct: purchased Carna Biosciences 08-518
Assay: ALK WT cell free enzymatic assay (TR-FRET)
Format: biochemical
Settings: compound at 100 nM; 30 min pre-incubation; 1 μM ATP
Listing of entries alongside the reported inhibition at 0.1 µM.
Be sure to follow the number with its unit.

Some solved cases for reference:
Given item COc1ccc(-c2cnc3[nH]cc(-c4cnn(Cc5cc(F)cc(F)c5)c4)c3c2)cc1NS(C)(=O)=O [Example 71] , the value recorded as its inhibition at 0.1 µM is 94%

Per the records, this molecule ( Cc1nn(Cc2cccc(F)c2)c(C)c1-c1c[nH]c2ncc(-c3ccc(NC4CCNCC4)cc3)cc12 [Example 101] ) has inhibition at 0.1 µM equal to 99%

Consider the record given below.
Per the record, Fc1cccc(Cn2cc(-c3c[nH]c4ncc(-c5cccc(CC6CCNCC6)c5)cc34)cn2)c1 [Example 102] has inhibition at 0.1 µM of 91%

* * *

Molecular target: recombinant human ALK enzyme (ALK WT) (Homo sapiens, UniProt Q9UM73)
Construct: purchased Carna Biosciences 08-518
Sequence (Q9UM73 1058-1620 limits assumed): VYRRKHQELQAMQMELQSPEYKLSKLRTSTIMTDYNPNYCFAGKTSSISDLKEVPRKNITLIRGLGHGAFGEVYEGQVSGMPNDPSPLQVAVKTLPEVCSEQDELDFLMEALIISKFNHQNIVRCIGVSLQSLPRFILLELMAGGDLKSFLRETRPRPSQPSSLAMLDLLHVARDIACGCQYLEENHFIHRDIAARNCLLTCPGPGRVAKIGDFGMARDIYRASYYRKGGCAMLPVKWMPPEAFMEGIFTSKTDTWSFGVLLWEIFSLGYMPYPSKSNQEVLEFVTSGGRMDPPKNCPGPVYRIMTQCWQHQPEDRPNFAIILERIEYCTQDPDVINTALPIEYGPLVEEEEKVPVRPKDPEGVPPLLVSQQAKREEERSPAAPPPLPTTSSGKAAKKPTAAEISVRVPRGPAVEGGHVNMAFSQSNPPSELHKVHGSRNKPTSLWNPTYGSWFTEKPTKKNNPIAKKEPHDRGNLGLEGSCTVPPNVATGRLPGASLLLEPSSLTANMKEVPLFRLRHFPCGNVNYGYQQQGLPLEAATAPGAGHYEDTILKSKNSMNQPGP
Assay: ALK WT cell free enzymatic assay (TR-FRET)
Assay type: biochemical
Conditions: compound at 1 μM; 30 min pre-incubation; 1 μM ATP
Counter-ions that a name gives are not always drawn.
REPORTED_METRIC: inhibition at 1 µM

// below: answered compounds
Note to self: inhibition at 1 µM recorded for C[C@H](O)CN1CCC(c2ccc(-c3cnc4[nH]cc(-c5cnn(Cc6cccc(F)c6)c5)c4c3)cc2)CC1 [Example 82A] was 98%

Record summary for Cc1nn(Cc2cc(F)ccc2F)c(C)c1-c1c[nH]c2ncc(-c3ccc(N4CCNCC4)cc3)cc12 [Example 42, hydrochloride] : reported inhibition at 1 µM = 100%

Sample Fc1cccc(Cn2cc(-c3c[nH]c4ncc(-c5ccc(C6CCNCC6)cc5)cc34)cn2)c1 [Example 82] ; inhibition at 1 µM observed: 100%

Entry Cc1nn(Cc2cccc(F)c2)c(C)c1-c1c[nH]c2ncc(-c3ccc(N4CCN(CCO)CC4)cc3)cc12 [Example 41] — recorded inhibition at 1 µM = 100%

The compound listed as CS(=O)(=O)Nc1cccc(-c2cnc3[nH]cc(-c4cnn(Cc5ccc(F)cc5)c4)c3c2)c1 [Example 5] has a reported inhibition at 1 µM of 69%

Now look at this one.
Field inhibition at 1 µM (entry Cc1c(-c2c[nH]c3ncc(-c4ccc(C5CCNCC5)cc4)cc23)cnn1Cc1cccc(F)c1 [Example 91] ) reads 100%

* * *

Molecular target: recombinant human ALK enzyme (ALK WT) (Homo sapiens, UniProt Q9UM73)
Construct: purchased Carna Biosciences 08-518
Assay: ALK WT cell free enzymatic assay (TR-FRET)
Type: biochemical
Conditions: compound at 1 μM; 30 min pre-incubation; 1 μM ATP
Structures can show the parent of a compound that is named as a salt.
Measured inhibition at 1 µM accompanies every entry in the list below.
Only the number, expressed in %, is required.

The value of inhibition at 1 µM measured for the molecule Cc1nn(Cc2cccc(F)c2)c(C)c1-c1c[nH]c2ncc(-c3ccc(C4CCNCC4)cc3)cc12 [Example 92] turned out to be 100

molecule c1cc(Cn2cc(-c3c[nH]c4ncc(-c5ccc(C6CCNCC6)cc5)cc34)cn2)ccn1 [Example 171] , inhibition at 1 µM observed: 88

Field inhibition at 1 µM (entry NC(=O)CN1CCN(c2ccc(-c3cnc4[nH]cc(-c5cnn(Cc6cc(F)cc(F)c6)c5)c4c3)cn2)CC1 [Example 136] ) reads 99

Further cases:
The molecule listed as CS(=O)(=O)N1CCN(c2ccc(-c3cnc4[nH]cc(-c5cnn(Cc6cccc(F)c6)c5)c4c3)cn2)CC1 [Example 158] has a reported inhibition at 1 µM of 94

Form field inhibition at 1 µM, entry Fc1cccc(Cn2cc(-c3c[nH]c4ncc(-c5cccc(CC6CCNCC6)c5)cc34)cn2)c1 [Example 102] : 100

So, OCCN1CCN(c2ccc(-c3cnc4[nH]cc(-c5cnn(Cc6cccc(F)c6)c5)c4c3)cn2)CC1 [Example 142] ? Its inhibition at 1 µM was 100

Per the records, this molecule ( Cc1nn(Cc2cccc(F)c2)c(C)c1-c1c(C2CC2)[nH]c2ncc(-c3ccc(N4CCNCC4)cc3)cc12 [Example 63] ) has inhibition at 1 µM equal to 48

For this molecule ( Cc1nn(Cc2cccc(OC(F)(F)F)c2)c(C)c1-c1c[nH]c2ncc(-c3ccc(N4CCNCC4)cc3)cc12 [Example 52, hydrochloride] ), measured inhibition at 1 µM is 80
